Measured values drawn from patent US20180016324A1 for this set.

- test.target: T1, ZIKV (prM80E) with a C-terminal myc-myc-hexahistidine tag (Zika virus, UniProt A0A024B7W1 104-694)
- T1 construct: also called ZIKV (prM80E)-mmH; ZIKV-mmH
- measurement.notes: SPR, mAb captured, 37C
quantity: t½ pH 7.4/t½ pH 6.0
# respond with the number and nothing more

Entry H4H25592P (antibody, V domains shown) VH: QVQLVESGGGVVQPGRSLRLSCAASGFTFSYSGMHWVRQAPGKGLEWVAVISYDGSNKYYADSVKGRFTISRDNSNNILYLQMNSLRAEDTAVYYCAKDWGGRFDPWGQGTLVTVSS VL: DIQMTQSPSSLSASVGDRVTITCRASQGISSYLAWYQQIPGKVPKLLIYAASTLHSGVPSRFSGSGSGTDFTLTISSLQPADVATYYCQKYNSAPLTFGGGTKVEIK — recorded t½ pH 7.4/t½ pH 6.0 = 2.9

Entry H4H25637P (antibody, V domains shown) VH: QLQLQESGPGLVKPSETLSLTCTVSGDSISSSNYFWGWIRQPPGKGLEWIGNIYYSGDTYYNPSLKSRVTMSVDTSKKQFSLKLRSVTAADTAVYYCARGRPYYDFWSGYFDYWGQGTLVTVSS VL: EIVLTQSPGTLSLSPGERATLPCRASQSVSSSYLAWYQQKPGQAPRLLIYGASSRATGIPDRFRGSGSGTDFTLTISRLEPEDFAVYYCQQYGTAPWTFGQGTKVEIK — recorded t½ pH 7.4/t½ pH 6.0 = 0.3
